Test system: CCRF-CEM
test: Cytotoxicity against human vinblastine-resistant CCRF-CEM cells after 72 hrs by XTT assay
Assay type: functional, cell-based
quantity_kind: IC50 (nM)
Give a bare numeral; the unit nM is implied.

These recorded examples may help you get a feel for the data.
OCc1c(CO)c2sc3ccccc3n2c1-c1ccc(Cl)cc1 | 4090
CC(C)NC(=O)OCc1c(COC(=O)NC(C)C)c2sc3ccccc3n2c1-c1ccc(Cl)cc1 | 420

Reported IC50 for `OCc1c(CO)c2sc3ccccc3n2c1-c1ccc(F)cc1` was 3720

Reported IC50 for `COc1ccc(-c2c(CO)c(CO)c3sc4ccccc4n23)cc1` was 2630

Reported IC50 for `Cc1c(COC(=O)NC(C)C)c(COC(=O)NC(C)C)c2sc3ccccc3n12` was 250

Reported IC50 for `CCNC(=O)OCc1c(COC(=O)NCC)c2sc3ccccc3n2c1C` was 430

----------
Test system: MX1
test: Cytotoxicity against human MX1 cells after 72 hrs by SRB assay
Type: functional, cell-based
conditions_used: MX1, 72 h
IC50 listing for selected compounds.
Give a bare numeral; the unit nM is implied.

These recorded examples may help you get a feel for the data.
Cc1c(CO)c(CO)c2sc3ccccc3n12 | 7100
CCNC(=O)OCc1c(COC(=O)NCC)c2sc3ccccc3n2c1-c1ccc(F)cc1 | 480
OCc1c(CO)c2sc3ccccc3n2c1-c1ccc(Cl)cc1 | 10400
Cc1c(COC(=O)NC(C)C)c(COC(=O)NC(C)C)c2sc3ccccc3n12 | 130
CC(C)NC(=O)OCc1c(COC(=O)NC(C)C)c2sc3ccccc3n2c1-c1ccc(Cl)cc1 | 1190

Reported IC50 for `OCc1c(CO)c2sc3ccccc3n2c1-c1ccc(F)cc1` was 2770

Reported IC50 for `CC(C)NC(=O)OCc1c(COC(=O)NC(C)C)c2sc3ccccc3n2c1-c1ccc(F)cc1` was 620

Reported IC50 for `CCNC(=O)OCc1c(COC(=O)NCC)c2sc3ccccc3n2c1-c1ccc(F)c(F)c1` was 1490

Reported IC50 for `CCNC(=O)OCc1c(COC(=O)NCC)c2sc3ccccc3n2c1-c1ccc(Cl)cc1` was 910

Reported IC50 for `CC(C)NC(=O)OCc1c(COC(=O)NC(C)C)c2sc3ccccc3n2c1-c1ccc(F)c(F)c1` was 1000

----------
test: Toxicity in iv dosed athymic nude mouse assessed as mortality
Format: organism-based
conditions_used: in vivo
quantity_kind: MTD (mg/kg)
Give a bare numeral; the unit mg/kg is implied.

Reported MTD for `CC(C)NC(=O)OCc1c(COC(=O)NC(C)C)c2sc3ccccc3n2c1-c1ccc(Cl)cc1` was 20

----------
Tested on: CCRF-CEM
test: Ratio of IC50 for human vinblastine-resistant CCRF-CEM cells to IC50 for human CCRF-CEM cells
Format: functional
Is Ratio IC50 at least 4? Then True. If not, False.

OCc1c(CO)c2sc3ccccc3n2c1-c1ccc(F)cc1 | False
CC(C)NC(=O)OCc1c(COC(=O)NC(C)C)c2sc3ccccc3n2c1-c1ccc(F)c(F)c1 | False
OCc1c(CO)c2sc3ccccc3n2c1-c1ccc(F)c(F)c1 | False

In plain terms: is recorded Ratio IC50 at least 4 for `Cc1c(COC(=O)NC(C)C)c(COC(=O)NC(C)C)c2sc3ccccc3n12` ? False

In plain terms: is recorded Ratio IC50 at least 4 for `Cc1c(CO)c(CO)c2sc3ccccc3n12` ? False

In plain terms: is recorded Ratio IC50 at least 4 for `CCNC(=O)OCc1c(COC(=O)NCC)c2sc3ccccc3n2c1C1CC1` ? False

----------
Tested on: CCRF-CEM
test: Ratio of IC50 for human vinblastine-resistant CCRF-CEM cells to IC50 for human CCRF-CEM cells
Format: functional
quantity_kind: Ratio IC50
// no unit, no text: just the number

CC(C)NC(=O)OCc1c(COC(=O)NC(C)C)c2sc3ccccc3n2c1C1CC1 | 9
CCNC(=O)OCc1c(COC(=O)NCC)c2sc3ccccc3n2c1C | 1.3
CC(C)NC(=O)OCc1c(COC(=O)NC(C)C)c2sc3ccccc3n2c1-c1ccc(Cl)cc1 | 5.25

Reported Ratio IC50 for `COc1ccc(-c2c(CO)c(CO)c3sc4ccccc4n23)cc1` was 2.3

Reported Ratio IC50 for `OCc1c(CO)c2sc3ccccc3n2c1C1CC1` was 2.51

Reported Ratio IC50 for `CCNC(=O)OCc1c(COC(=O)NCC)c2sc3ccccc3n2c1-c1ccc(OC)cc1` was 2.2

Reported Ratio IC50 for `CC(=O)O[C@H]1C(=O)[C@@]2(C)[C@H]([C@H](OC(=O)c3ccccc3)[C@]3(O)C[C@H](OC(=O)[C@H](O)[C@@H](NC(=O)c4ccccc4)c4ccccc4)C(C)=C1C3(C)C)[C@]1(OC(C)=O)CO[C@@H]1C[C@@H]2O` was 980

Reported Ratio IC50 for `CC[C@]1(O)C[C@@H]2CN(CCc3c([nH]c4ccccc34)[C@@](C(=O)OC)(c3cc4c(cc3OC)N(C)[C@H]3[C@@](O)(C(=O)OC)[C@H](OC(C)=O)[C@]5(CC)C=CCN6CC[C@]43[C@@H]65)C2)C1` was 680

Reported Ratio IC50 for `COc1ccc(-c2c(COC(=O)NC(C)C)c(COC(=O)NC(C)C)c3sc4ccccc4n23)cc1` was 1.47

----------
System: CCRF-CEM
test: Ratio of IC50 for human vinblastine-resistant CCRF-CEM cells to IC50 for human CCRF-CEM cells
Format: functional
quantity_kind: Ratio IC50
// no unit, no text: just the number

These recorded examples may help you get a feel for the data.
CCNC(=O)OCc1c(COC(=O)NCC)c2sc3ccccc3n2c1-c1ccc(Cl)cc1 | 1.85
OCc1c(CO)c2sc3ccccc3n2c1-c1ccc(Cl)cc1 | 1.56
CCNC(=O)OCc1c(COC(=O)NCC)c2sc3ccccc3n2c1-c1ccc(F)c(F)c1 | 1.47
CC(C)NC(=O)OCc1c(COC(=O)NC(C)C)c2sc3ccccc3n2c1-c1ccc(F)cc1 | 3.8

Okay, next one:
Reported Ratio IC50 for `CCNC(=O)OCc1c(COC(=O)NCC)c2sc3ccccc3n2c1-c1ccc(F)cc1` was 6.42
